target: proMMP13(1-268) (SEQ ID NO:7) (Homo sapiens, UniProt P45452)
Criterion: Kd strictly less than 40 µM. Met: Criterion met. Not met: Criterion not met.

Some entries whose results are on file:
COc1ccccc1Nc1nc(-c2sc(NS(C)(=O)=O)nc2C)cs1    Criterion not met
COc1ccccc1Nc1nc(-c2sc(N)nc2C)cs1    Criterion met
CC(=O)Nc1nc(C)c(-c2csc(Nc3ccccc3OC(C)C)n2)s1    Criterion met
CCOc1ccccc1Nc1nc(-c2cccnc2)cs1    Criterion not met

Task item: Here's an entry: "CC(=O)Nc1nc(C)c(-c2csc(Nc3cc(F)ccc3OC(C)C)n2)s1" . Is its Kd below 40 µM?
Reply: Criterion met

Task item: Here's an entry: "CCOc1ccccc1Nc1nc(-c2sc(NC(=O)CC)nc2C)cs1" . Is its Kd below 40 µM?
Reply: Criterion not met

Task item: Here's an entry: "COc1ccccc1Nc1nc(-c2cnc(N)s2)cs1" . Is its Kd below 40 µM?
Reply: Criterion not met

Task item: Here's an entry: "Cc1nc(C)c(-c2csc(Nc3ccccc3OC(F)(F)F)n2)s1" . Is its Kd below 40 µM?
Reply: Criterion met

Task item: Here's an entry: "COc1ccccc1Nc1nc(-c2sc(N)nc2C(F)(F)F)cs1" . Is its Kd below 40 µM?
Reply: Criterion not met

Task item: Here's an entry: "COc1ccccc1Nc1nc(-c2cccnc2)cs1" . Is its Kd below 40 µM?
Reply: Criterion not met

Attribution: patent US20120302573A1
